# Test System: Genome polyprotein (Coxsackievirus B3 (strain Nancy), UniProt P03313)
# Sequence (P03313 1541-1723 limits assumed): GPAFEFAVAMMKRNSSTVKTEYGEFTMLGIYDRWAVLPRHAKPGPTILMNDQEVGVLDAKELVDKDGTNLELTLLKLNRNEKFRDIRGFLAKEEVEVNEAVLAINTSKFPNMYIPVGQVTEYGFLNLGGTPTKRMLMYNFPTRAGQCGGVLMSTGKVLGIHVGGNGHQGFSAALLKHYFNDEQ
# Experimental Details: Inhibition of Coxsackievirus B3 Nancy 3Cpro
Quantity Kind: pIC50
Recall that pIC50 is obtained by taking minus log10 of the concentration measured in molar.

Asked: Returns the measured pIC50 for the input compound. Input: `CC(C)C[C@@H]1NC(=O)[C@@H](NC(=O)OCc2ccccc2)Cc2cn(nn2)CCCNC(=O)CC[C@@H](C=O)NC1=O`
Given back: 5.74

====

# Test System: Replicase polyprotein 1a (Severe acute respiratory syndrome-related coronavirus)
Quantity Kind: pIC50
Recall that pIC50 is obtained by taking minus log10 of the concentration measured in molar.

Asked: # returns recorded pIC50 (system: Replicase polyprotein 1a (Severe acute respiratory syndrome-related coronavirus)) for `CC(C)C[C@@H]1NC(=O)[C@@H](NC(=O)OCc2ccccc2)Cc2cn(nn2)CCCNC(=O)CC[C@@H](C=O)NC1=O`
Given back: 4.81
